- test method notes: Determination of the hygroscopicity (water absorption in artificial climate chamber)
- Format: physicochemical
- settings: 1.5 h, open weighing bottle, 25±1° C., relative humidity 43.5±2%
readout name: Water absorption, % (%)
Answers are plain numbers, in %.

# example entries with known answers
>  <molecule>
CCOC(=O)[C@H](C)C[C@@H](Cc1ccc(-c2ccccc2)cc1)NC(=O)CCC(=O)[O-].[Na+] [D]

>  <Water absorption, % (%)>
1.5

$$$$
>  <molecule>
CCOC(=O)[C@H](C)C[C@@H](Cc1ccc(-c2ccccc2)cc1)NC(=O)CCC(=O)[O-].[Na+] [C]

>  <Water absorption, % (%)>
1.2

$$$$

Batch: Water absorption, % for all items listed.
1. CCOC(=O)[C@H](C)C[C@@H](Cc1ccc(-c2ccccc2)cc1)NC(=O)CCC(=O)[O-].[Na+] [B]
2. CCOC(=O)[C@H](C)C[C@@H](Cc1ccc(-c2ccccc2)cc1)NC(=O)CCC(=O)[O-].[Na+] [A]
3. CCOC(=O)[C@H](C)C[C@@H](Cc1ccc(-c2ccccc2)cc1)NC(=O)CCC(=O)[O-].[Na+] [E]
4. CCOC(=O)[C@H](C)C[C@@H](Cc1ccc(-c2ccccc2)cc1)NC(=O)CCC(=O)[O-].[Na+] [sacubitril sodium salt X, reference compound]

Resp:
1. 0.5
2. 0.6
3. 2.4
4. 8.3

* * *

- test method notes: Determination of the hygroscopicity (water absorption in artificial climate chamber)
- Assay type: physicochemical
- settings: 3 h, open weighing bottle, 25±1° C., relative humidity 43.5±2%
Hi there, I'd appreciate the recorded Water absorption, % for every entry that follows.
One number for each entry, in %.

# example entries with known answers
>  <compound>
CCOC(=O)[C@H](C)C[C@@H](Cc1ccc(-c2ccccc2)cc1)NC(=O)CCC(=O)[O-].[Na+] [C]

>  <readout name>
Water absorption, %

>  <readout units>
%

>  <value observed>
2.4

$$$$
>  <compound>
CCOC(=O)[C@H](C)C[C@@H](Cc1ccc(-c2ccccc2)cc1)NC(=O)CCC(=O)[O-].[Na+] [sacubitril sodium salt X, reference compound]

>  <readout name>
Water absorption, %

>  <readout units>
%

>  <value observed>
11.0

$$$$
>  <compound>
CCOC(=O)[C@H](C)C[C@@H](Cc1ccc(-c2ccccc2)cc1)NC(=O)CCC(=O)[O-].[Na+] [E]

>  <readout name>
Water absorption, %

>  <readout units>
%

>  <value observed>
4.3

$$$$
>  <compound>
CCOC(=O)[C@H](C)C[C@@H](Cc1ccc(-c2ccccc2)cc1)NC(=O)CCC(=O)[O-].[Na+] [B]

>  <readout name>
Water absorption, %

>  <readout units>
%

>  <value observed>
1.0

$$$$
>  <compound>
CCOC(=O)[C@H](C)C[C@@H](Cc1ccc(-c2ccccc2)cc1)NC(=O)CCC(=O)[O-].[Na+] [D]

>  <readout name>
Water absorption, %

>  <readout units>
%

>  <value observed>
3.2

$$$$

// next item, Water absorption, % requested
Req: Return the recorded Water absorption, % value; entry: CCOC(=O)[C@H](C)C[C@@H](Cc1ccc(-c2ccccc2)cc1)NC(=O)CCC(=O)[O-].[Na+] [A]
Resp: 1.4
